System: human Gal-1 (hGal-1) (Homo sapiens (Human)) | Read-out: IC50
Sequence (P09382 whole entry): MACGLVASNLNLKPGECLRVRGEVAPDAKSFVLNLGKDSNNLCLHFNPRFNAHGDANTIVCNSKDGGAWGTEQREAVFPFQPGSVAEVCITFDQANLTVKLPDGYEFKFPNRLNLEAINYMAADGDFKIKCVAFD
Attribute Measured: IC50 (nM)

Below are worked cases with known answers.
# Compound, Study System, Units Label, IC50
rows = [
    ("O=C(NC1CC1)N1CCC(O)([C@H](S[C@@H]2O[C@H](CO)[C@H](O)[C@H](n3cc(-c4cc(F)c(F)c(F)c4)nn3)[C@H]2O)c2ccccc2C(F)(F)F)CC1 [Example 2.49.112R.]", "human Gal-1 (hGal-1) (Homo sapiens (Human))", "nM", 160),
    ("CO[C@@H]1[C@@H](n2cc(-c3cc(F)c(F)c(F)c3)nn2)[C@@H](O)[C@@H](CO)O[C@H]1S[C@H](c1nccc(C(F)(F)F)c1C)C1(O)CCC(F)(F)CC1 [Example 2.44.147R.I.]", "human Gal-1 (hGal-1) (Homo sapiens (Human))", "nM", 760),
]

[I] Cc1conc1[C@@H](S[C@@H]1O[C@H](CO)[C@H](O)[C@H](n2cc(-c3cc(F)c(F)c(F)c3)nn2)[C@H]1O)C(C)(C)O [Example 2.31.120R.]
[II] CO[C@@H]1[C@@H](n2cc(-c3cc(F)c(F)c(F)c3)nn2)[C@@H](O)[C@@H](CO)O[C@H]1S[C@@H](c1nccc(C(F)(F)F)c1C)C1(O)CCC(F)(F)CC1 [Example 2.44.147S.I.]
[III] OC[C@H]1O[C@@H](S[C@H](c2ncccc2C(F)(F)F)C2(O)CCOCC2)[C@H](O)[C@@H](n2cc(-c3cc(F)c(F)c(F)c3)nn2)[C@H]1O [Example 2.41.125R.]
Q) Your job: order these 3 records by IC50, ascending. // rank by listing labels in the order requested
A) III, I, II
(III: 130 nM, I: 1800 nM, II: 31800 nM)

----------
biological target: UniProtKB P09382
pIC50: −log10 of the molar value.
Attribute Measured: pIC50

# Compound, pIC50
rows = [
    ("CCc1c([C@H](S[C@@H]2O[C@H](CO)[C@H](O)[C@H](n3cc(-c4cc(F)c(F)c(F)c4)nn3)[C@H]2O)C2(O)CCC(F)(F)CC2)noc1C1CC1 [Example 2.44.130S.]", 5.25),
]

[I] Cc1c(F)cccc1[C@H](S[C@@H]1O[C@H](CO)[C@H](O)[C@H](n2cc(-c3cc(F)c(F)c(F)c3)nn2)[C@H]1O)C(C)(C)O (single isomer, unassigned) [Example 2.31.114R.]
[II] CC(C)(O)[C@@H](S[C@@H]1O[C@H](CO)[C@H](O)[C@H](n2cc(-c3cc(F)c(F)c(F)c3)nn2)[C@H]1O)c1ccccc1C1CC1 [Example 2.31.106S.]
[III] CC(C)(O)[C@@H](S[C@@H]1O[C@H](CO)[C@H](O)[C@H](n2cc(-c3cc(F)c(F)c(F)c3)nn2)[C@H]1O)c1ccccc1-c1ccccc1 [Example 2.31.110S.]
[IV] Cc1ccccc1C(S[C@@H]1O[C@H](CO)[C@H](O)[C@H](n2cc(-c3cc(F)c(F)c(F)c3)nn2)[C@H]1O)C1(O)CCCCC1 (some centres unmarked) [Example 2.39.102.]
Q) # rank_down: sort by pIC50, max first // rank by listing labels in the order requested
A) IV, I, III, II
(IV: 5.80, I: 5.14, III: 4.78, II: 4.19)

----------
System: UniProt P09382 | Read-out: pIC50
pIC50: −log10 of the molar value.
Attribute Measured: pIC50

# Molecule, Study System, pIC50
data = [
    ("Cc1nc(C)c([C@@H](S[C@@H]2O[C@H](CO)[C@H](O)[C@H](n3cc(-c4cc(F)c(F)c(F)c4)nn3)[C@H]2O)C2(O)CCC(F)(F)CC2)nc1C [Example 2.44.119R.]", "UniProt P09382", 6.64),
]

[A] Cc1nc(C)c([C@@H](S[C@@H]2O[C@H](CO)[C@H](O)[C@H](n3cc(-c4cc(F)c(F)c(F)c4)nn3)[C@H]2O)C2(O)CCN(C)CC2)nc1C [Example 2.40.119R.]
[B] CO[C@@H]1[C@@H](n2cc(-c3cc(F)c(F)c(F)c3)nn2)[C@@H](O)[C@@H](CO)O[C@H]1S[C@@H](c1noc(C2CC2)c1C)C1(O)CCC(F)(F)CC1 [Example 2.44.145S.I.]
Q) Exercise: compare A and B ; which one has the greater pIC50? Reply briefly: the label of your chosen item.
A) A

----------
molecular target: human Gal-1 (hGal-1) (Homo sapiens (Human))
Attribute Measured: IC50 (nM)

Below are worked cases with known answers.
# Compound, Attribute Measured, Quantitative Readout
records = [
    ("CC(C)(O)[C@H](S[C@@H]1O[C@H](CO)[C@H](O)[C@H](n2cc(-c3cc(F)c(F)c(F)c3)nn2)[C@H]1O)c1ccccc1CCO [Example 2.31.108R.]", "IC50", 390),
    ("CCn1ncc(Cl)c1[C@@H](S[C@@H]1O[C@H](CO)[C@H](O)[C@H](n2cc(-c3cc(F)c(F)c(F)c3)nn2)[C@H]1OC)C1(O)CCC(F)(F)CC1 [Example 2.44.139R.I.]", "IC50", 540),
    ("Cc1conc1[C@H](S[C@@H]1O[C@H](CO)[C@H](O)[C@H](n2cc(-c3cc(F)c(F)c(F)c3)nn2)[C@H]1O)C1(O)CCS(=O)(=O)CC1 [Example 2.66.120S.]", "IC50", 24100),
    ("CCCCCc1ccccc1C(S[C@@H]1O[C@H](CO)[C@H](O)[C@H](n2cc(-c3cc(F)c(F)c(F)c3)nn2)[C@H]1O)C(C)(C)O (stereo partly drawn)", "IC50", 3230),
    ("Cc1ccccc1[C@H](S[C@@H]1O[C@H](CO)[C@H](O)[C@H](n2cc(-c3cc(F)c(F)c(F)c3)nn2)[C@H]1O)C1(O)CCCCC1 [Example 2.39.102S.]", "IC50", 24000),
]

[I] CO[C@@H]1[C@@H](n2cc(-c3cc(F)c(F)c(F)c3)nn2)[C@@H](O)[C@@H](CO)O[C@H]1S[C@@H](c1nocc1C)C1(O)CCCCC1 [Example 2.39.120S.I.]
[II] CO[C@@H]1[C@@H](n2cc(-c3ccc(F)c(F)c3)nn2)[C@@H](O)[C@@H](CO)O[C@H]1S[C@H](c1ncccc1C)C1(O)CCC(F)(F)CC1 [Example 16.44.126R.I.]
[III] CO[C@@H]1[C@@H](n2cc(-c3cc(F)c(F)c(F)c3)nn2)[C@@H](O)[C@@H](CO)O[C@H]1S[C@H](c1nccc(Cl)c1C)C1(O)CCC(F)(F)CC1 [Example 2.44.141R.I.]
[IV] CC(C)(O)C(S[C@@H]1O[C@H](CO)[C@H](O)[C@H](n2cc(-c3cc(F)c(F)c(F)c3)nn2)[C@H]1O)c1ccccc1 (stereo partly drawn)
Q) # rank_down: sort by IC50, max first // rank by listing labels in the order requested
A) I, IV, II, III

----------
System: human Gal-1 (hGal-1) (Homo sapiens (Human)) | Read-out: IC50
Attribute Measured: IC50 (nM)

Below are worked cases with known answers.
# Compound, Units Label, IC50
data = [
    ("OC[C@H]1O[C@@H](S[C@@H](c2ccccc2C(F)(F)F)C2(O)CCOCC2)[C@H](O)[C@@H](n2cc(-c3cc(F)c(F)c(F)c3)nn2)[C@H]1O [Example 2.41.112S.]", "nM", 59400),
    ("CO[C@@H]1[C@@H](n2cc(-c3cc(F)c(Cl)c(Cl)c3)nn2)[C@@H](O)[C@@H](CO)O[C@H]1SC(c1ncccc1C)C1(O)CCC(F)(F)CC1 (stereo partly drawn)", "nM", 1680),
    ("Cc1nc(C)c([C@H](S[C@@H]2O[C@H](CO)[C@H](O)[C@H](n3cc(-c4cc(F)c(F)c(F)c4)nn3)[C@H]2O)C2(O)CCCCC2)nc1C [Example 2.39.119S.]", "nM", 18900),
    ("OC[C@H]1O[C@@H](S[C@H](c2ncccc2C(F)(F)F)C2(O)CCCC2)[C@H](O)[C@@H](n2cc(-c3cc(F)c(F)c(F)c3)nn2)[C@H]1O [Example 2.38.125R.]", "nM", 480),
]

[P] CO[C@@H]1[C@@H](n2cc(-c3cc(F)c(F)c(F)c3)nn2)[C@@H](O)[C@@H](CO)O[C@H]1S[C@H](c1ncccc1Cl)C1(O)CCC(F)(F)CC1 [Example 2.44.137R.I.]
[Q] Cc1ccccc1[C@@H](S[C@@H]1O[C@H](CO)[C@H](O)[C@H](n2cc(-c3cc(F)c(F)c(F)c3)nn2)[C@H]1O)C(C)(C)O [Example 2.31.102R.]
Q) Of P and Q , which shows the smaller IC50 value? Reply briefly: the label of your chosen item.
A) P
(P: 720 nM, Q: 1420 nM)
